Data provenance is ChEMBL document CHEMBL1201862.

Attribute: IC50
Molecular target: Carboxy-terminal domain RNA polymerase II polypeptide A small phosphatase 1 (Homo sapiens)
Sequence (Q9GZU7 whole entry, the tested form may be a part): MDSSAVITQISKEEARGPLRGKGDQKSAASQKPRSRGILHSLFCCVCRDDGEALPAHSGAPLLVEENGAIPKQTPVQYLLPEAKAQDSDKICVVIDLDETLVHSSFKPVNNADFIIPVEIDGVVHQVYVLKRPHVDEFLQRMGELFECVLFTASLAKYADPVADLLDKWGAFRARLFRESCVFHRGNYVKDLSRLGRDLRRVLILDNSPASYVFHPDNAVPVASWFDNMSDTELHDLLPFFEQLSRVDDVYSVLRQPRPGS
Assay: CTDSP1 inhibitors, concentration-response, biochemical, absorbance readout, ultra-high-throughput screen actives (AID 540297)
Assay type: functional
Calls of active or inactive are those of the source.

- query-smiles: "O=C(CCS(=O)(=O)c1ccc(Br)cc1)NCc1ccc(F)cc1"
  IC50: "7.9 µM (active)"
- query-smiles: "Cc1ccccc1CSCC(=O)NC(=O)NCc1ccco1"
  IC50: "10.4 µM (active)"
- query-smiles: "O=C(N=Nc1c(O)[nH]c2ccc([N+](=O)[O-])cc12)c1ccccc1Cl"
  IC50: "6.44 µM (active)"
- query-smiles: "CSc1ccc(/C=N/NC(=O)c2ccc(C)c(C)c2)cc1"
  IC50: "9.17 µM (active)"
- query-smiles: "O=C(O)c1cc(-c2ccco2)nn1-c1cccc(Cl)c1"
  IC50: "5.39 µM (active)"

* * *

Target: Glyceraldehyde-3-phosphate dehydrogenase (Homo sapiens, UniProt P04406)
Sequence (P04406 whole entry): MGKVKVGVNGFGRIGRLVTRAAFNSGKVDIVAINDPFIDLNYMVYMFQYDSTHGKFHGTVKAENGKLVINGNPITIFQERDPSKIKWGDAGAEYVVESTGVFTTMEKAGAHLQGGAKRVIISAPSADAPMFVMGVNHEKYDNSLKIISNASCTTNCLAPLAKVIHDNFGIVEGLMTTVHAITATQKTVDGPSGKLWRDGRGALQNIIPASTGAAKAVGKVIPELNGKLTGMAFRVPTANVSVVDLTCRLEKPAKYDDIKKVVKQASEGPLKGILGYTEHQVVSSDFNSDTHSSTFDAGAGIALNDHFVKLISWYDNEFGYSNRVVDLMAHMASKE
Active and inactive are the calls of the source.
measure: IC50

- query-smiles: "CCn1c(=O)n(Cc2ccc([N+](=O)[O-])cc2)c(=O)n([C@@H](Cc2ccccc2)C(=O)O)c1=O"
  measure: "IC50"
  reading: "> 100 µM (not active)"
- query-smiles: "CSc1nnc(-c2ccco2)c(-c2ccco2)n1"
  measure: "IC50"
  reading: "99.1 µM (active)"
- query-smiles: "CCCc1n[nH]c2c1C(=O)CC(C)(C)C2"
  measure: "IC50"
  reading: "> 100 µM (not active)"
- query-smiles: "O=C1C(Cl)=C(N2CCN(C/C=C/c3ccccc3)CC2)C(=O)N1c1ccc(Cl)nc1"
  measure: "IC50"
  reading: "> 50 µM (inconclusive)"

* * *

Attribute: IC50
Target: Aminopeptidase N (Plasmodium falciparum FcB1/Columbia, UniProt O96935)
Sequence (O96935 whole entry): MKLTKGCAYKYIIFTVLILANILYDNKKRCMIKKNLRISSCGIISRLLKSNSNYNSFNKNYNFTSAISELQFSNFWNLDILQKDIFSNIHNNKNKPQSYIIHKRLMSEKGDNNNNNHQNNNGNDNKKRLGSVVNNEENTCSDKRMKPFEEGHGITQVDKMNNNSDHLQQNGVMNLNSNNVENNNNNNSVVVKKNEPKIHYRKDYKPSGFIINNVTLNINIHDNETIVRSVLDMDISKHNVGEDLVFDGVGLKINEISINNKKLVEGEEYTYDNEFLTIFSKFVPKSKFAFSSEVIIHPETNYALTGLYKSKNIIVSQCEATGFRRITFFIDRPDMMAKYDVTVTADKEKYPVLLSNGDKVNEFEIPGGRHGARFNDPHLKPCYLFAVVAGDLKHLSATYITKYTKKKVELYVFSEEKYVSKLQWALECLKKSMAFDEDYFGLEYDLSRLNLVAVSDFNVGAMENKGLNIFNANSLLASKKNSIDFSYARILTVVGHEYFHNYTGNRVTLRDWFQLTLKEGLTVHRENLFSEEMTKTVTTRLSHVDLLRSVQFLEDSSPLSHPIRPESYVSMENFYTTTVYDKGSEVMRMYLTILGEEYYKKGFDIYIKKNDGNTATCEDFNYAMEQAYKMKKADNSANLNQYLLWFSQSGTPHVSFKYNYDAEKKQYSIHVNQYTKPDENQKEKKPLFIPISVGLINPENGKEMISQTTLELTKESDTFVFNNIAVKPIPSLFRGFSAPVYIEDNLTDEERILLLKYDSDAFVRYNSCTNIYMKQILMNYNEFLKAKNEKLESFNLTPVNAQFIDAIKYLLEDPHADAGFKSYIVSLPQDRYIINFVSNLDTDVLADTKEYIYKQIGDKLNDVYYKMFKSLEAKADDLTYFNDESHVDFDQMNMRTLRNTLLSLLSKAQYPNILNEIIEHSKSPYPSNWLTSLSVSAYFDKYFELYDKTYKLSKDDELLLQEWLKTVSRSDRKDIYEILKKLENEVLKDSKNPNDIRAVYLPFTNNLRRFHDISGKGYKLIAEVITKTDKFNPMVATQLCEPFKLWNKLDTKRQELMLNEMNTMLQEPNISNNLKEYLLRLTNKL
Experiment: malaria alanyl aminopeptidase activity blockers – biochemical, fluorogenic H-Leu-NHMec substrate, 1536-well (AID 1445)
Design: species or system Plasmodium falciparum 3D7, 3D7
Active and inactive are the calls of the source.

- query-smiles: "CCCc1cc(=O)oc2c(CN3CCN(C)CC3)c(O)c(Cl)cc12"
  target-or-system: "Aminopeptidase N (Plasmodium falciparum FcB1/Columbia, UniProt O96935)"
  IC50: "42 µM (active)"
- query-smiles: "O=C(N/N=C(\\Cc1ncc[nH]1)c1ccccc1)c1ccncc1"
  target-or-system: "Aminopeptidase N (Plasmodium falciparum FcB1/Columbia, UniProt O96935)"
  IC50: "21.4 µM (active)"
- query-smiles: "CS(=O)(=O)N1CCC(C(=O)c2cccc(Cl)c2)CC1"
  target-or-system: "Aminopeptidase N (Plasmodium falciparum FcB1/Columbia, UniProt O96935)"
  IC50: "41.1 µM (active)"
- query-smiles: "O=C(Oc1c(CN2CCOCC2)cc(Cl)c2cccnc12)c1cccs1"
  target-or-system: "Aminopeptidase N (Plasmodium falciparum FcB1/Columbia, UniProt O96935)"
  IC50: "72.3 µM (active)"
- query-smiles: "COCCOC(=O)c1c(C)oc2ccc(NS(=O)(=O)c3cccs3)cc12"
  target-or-system: "Aminopeptidase N (Plasmodium falciparum FcB1/Columbia, UniProt O96935)"
  IC50: "48.5 µM (active)"
- query-smiles: "C=CCOc1ccc(/C=C2\\C(=N)N3N=C(S(=O)(=O)CC)SC3=NC2=O)cc1OC"
  target-or-system: "Aminopeptidase N (Plasmodium falciparum FcB1/Columbia, UniProt O96935)"
  IC50: "24.5 µM (active)"
